The values you see were collected from ChEMBL document CHEMBL1130155.

MEASUREMENT_TARGET: Prothrombin (Bos taurus)
pKi: −log10 of the molar value.
Tag: Condition met if measured pKi is not below 6, Condition not met if it is.

Worked examples, 5 compounds total:
Assess whether reported pKi for CN1CCN(C(=O)C(Cc2cccc(C(=N)N)c2)NS(=O)(=O)c2ccc3ccccc3c2)CC1 (stereo not drawn) sits at 6 or higher.
Condition met

Does the reported pKi for "N=C(N)c1cccc(C[C@@H](NS(=O)(=O)c2ccc3ccccc3c2)C(=O)N2CCN(C=O)CC2)c1" fall at or above the 6 mark?
Condition met

Could you verify whether the entry "CN(C)C(=O)N1CCN(C(=O)[C@@H](Cc2cccc(C(=N)N)c2)NS(=O)(=O)c2ccc3ccccc3c2)CC1" shows pKi of no less than 6?
Condition met

Determine whether this compound has pKi no lower than 6: "CN1CCN(C(=O)[C@H](Cc2cccc(C(=N)N)c2)NS(=O)(=O)c2ccc3ccccc3c2)CC1"
Condition not met

Kindly determine if pKi recorded for "CN1CCN(C(=O)[C@@H](Cc2cccc(C(=N)N)c2)NS(=O)(=O)c2ccc3ccccc3c2)CC1" is above or exactly 6.
Condition met

---
# check: pKi of CCCCS(=O)(=O)N1CCN(C(=O)C(Cc2cccc(C(=N)N)c2)NS(=O)(=O)c2ccc3ccccc3c2)CC1 (stereo not drawn) is greater than or equal to 6
Condition met

Dear colleague, could you confirm whether "N=C(N)c1cccc(C[C@H](NS(=O)(=O)c2ccc3ccccc3c2)C(=O)N2CCN(C=O)CC2)c1" has pKi at or above 6?
Condition not met

Entry CCCS(=O)(=O)N1CCN(C(=O)C(Cc2cccc(C(=N)N)c2)NS(=O)(=O)c2ccc3ccccc3c2)CC1 (stereo not drawn) : is its pKi no less than 6?
Condition met
